Measured phosphorylation enrichment by item
System: c-Abl (mouse)
Experiment: phosphorylation enrichment, bacterial display (enrichment ratio); higher = better substrate or ligand; peptides without Tyr show the background;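 note: 11-residue human phosphosite peptides and single-mutation variants displayed on the E. coli surface, counted by deep sequencing, each peptide's frequency after selection divided by its frequency in the unselected input library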;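 note: frequency after pTyr selection over input frequency; kinase dosed for 20-30% of maximal phosphorylation in three min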
I'd appreciate a reply containing only the number, no unit.

Known phosphorylation enrichment results, listed for orientation:
FDDIAYIQKTL [PIK3CA_Y1021_R1023Q] : 0.591
IRKTEYPFSSE [ATP2C1_Y452_A450T] : 0.549
RLLRGYRQDAY [HLA-A_Y137_F133L] : 0.67
IKRIAYEFVEM [ADA_Y84] : 0.599
LARNMYDKEFF [MET_Y1230_D1228N_YF] : 0.793
LHSEAYLKFIE [PBRM1_Y1610_YF] : 0.886
TLERHYKELQA [SPTBN2_Y834_E835K] : 0.612
KVITDYFVDMK [MPP4_Y566_YF] : 0.673

*Q* Given the entry PPLMLYNPTTF [EGFR_Y270_YF] , what phosphorylation enrichment was observed with c-Abl (mouse)?
*A* 0.79

*Q* What phosphorylation enrichment appears in the records for this sequence with c-Abl (mouse)? IQTDGYRAPEA [UHMK1_Y197]
*A* 0.725

*Q* I'm curious: which phosphorylation enrichment was measured for MDFRSYPREFG [RBM10_Y44_YF] tested on c-Abl (mouse)?
*A* 0.455

*Q* Request - read-out phosphorylation enrichment | tested on c-Abl (mouse) | sequence MEVGQYFFVKC [CYBB_Y324_I325F]
*A* 1.39

---

Target: Fes (UniProt P07332)
Sequence (P07332 whole entry, looked up): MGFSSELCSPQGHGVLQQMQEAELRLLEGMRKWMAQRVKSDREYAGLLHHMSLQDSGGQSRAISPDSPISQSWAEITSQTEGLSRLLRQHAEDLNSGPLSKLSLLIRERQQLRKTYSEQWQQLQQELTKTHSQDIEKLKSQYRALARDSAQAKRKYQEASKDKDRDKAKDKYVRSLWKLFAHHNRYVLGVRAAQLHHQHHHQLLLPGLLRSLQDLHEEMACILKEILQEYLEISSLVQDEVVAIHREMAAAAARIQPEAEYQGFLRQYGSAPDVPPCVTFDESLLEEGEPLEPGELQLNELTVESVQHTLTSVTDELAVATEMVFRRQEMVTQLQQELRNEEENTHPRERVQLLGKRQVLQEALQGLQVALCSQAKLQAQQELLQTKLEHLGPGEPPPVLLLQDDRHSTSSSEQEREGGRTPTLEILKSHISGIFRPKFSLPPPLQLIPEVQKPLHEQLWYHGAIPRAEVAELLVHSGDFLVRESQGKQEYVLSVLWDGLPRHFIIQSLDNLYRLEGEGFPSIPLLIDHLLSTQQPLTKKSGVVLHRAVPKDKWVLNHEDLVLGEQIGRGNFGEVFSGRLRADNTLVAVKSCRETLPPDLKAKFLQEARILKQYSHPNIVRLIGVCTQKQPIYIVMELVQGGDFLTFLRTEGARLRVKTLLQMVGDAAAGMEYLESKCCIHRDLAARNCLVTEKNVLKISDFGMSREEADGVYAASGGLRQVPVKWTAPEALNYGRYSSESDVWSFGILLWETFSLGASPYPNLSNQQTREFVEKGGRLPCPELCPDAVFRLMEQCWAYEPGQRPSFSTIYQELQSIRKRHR
Test: phosphorylation enrichment, bacterial display (enrichment ratio); higher = better substrate or ligand; peptides without Tyr show the background
Entries annotated with measured phosphorylation enrichment
// response body must contain only the number

Illustrative cases are given below, each with its answer.
PESCLYKESWL [IQGAP2_Y630] : 2.81
ITNVLYHVVGW [GBA_Y412_L410V] : 1.25
SVVVPYEPPEL [TP53_Y220_V225L] : 0.869
GTYVIYVRFSG [FLNB_Y1687_G1691S] : 1.3
KKHIPHREHKS [CSNK1G2_Y206_Y206H] : 4.05
ANNQRYAFMPL [TMEM87B_Y460] : 0.696
DLVSEYQQFQD [TUBB3_Y422_YF] : 1.33
YTGDIYSSSNL [LZTR1_Y141_N143S] : 0.74

*Q* Entry SEELHYYVQNH [UQCRC2_Y207_F208Y] has what phosphorylation enrichment?
*A* 1.62

*Q* Fill in the blank: the reported phosphorylation enrichment of LYYYSYLLKNH [PTEN_Y180_V175L] is ____.
*A* 1.3

*Q* Quick one: phosphorylation enrichment of CLAQRYLIWEC [SCN5A_Y694_R689C] ?
*A* 1.39

*Q* Find the recorded phosphorylation enrichment belonging to KRYRIYHLAIS [BRCA2_Y3009_T3013I] and report it.
*A* 0.68

*Q* Item under review: SDQRRYSLIDP [CLIP2_Y972_R977P] . Reported phosphorylation enrichment?
*A* 0.719

---

Measured phosphorylation enrichment, listed per entry for reference.
Biological target: MERTK (UniProt Q12866)
Sequence (Q12866 whole entry, looked up): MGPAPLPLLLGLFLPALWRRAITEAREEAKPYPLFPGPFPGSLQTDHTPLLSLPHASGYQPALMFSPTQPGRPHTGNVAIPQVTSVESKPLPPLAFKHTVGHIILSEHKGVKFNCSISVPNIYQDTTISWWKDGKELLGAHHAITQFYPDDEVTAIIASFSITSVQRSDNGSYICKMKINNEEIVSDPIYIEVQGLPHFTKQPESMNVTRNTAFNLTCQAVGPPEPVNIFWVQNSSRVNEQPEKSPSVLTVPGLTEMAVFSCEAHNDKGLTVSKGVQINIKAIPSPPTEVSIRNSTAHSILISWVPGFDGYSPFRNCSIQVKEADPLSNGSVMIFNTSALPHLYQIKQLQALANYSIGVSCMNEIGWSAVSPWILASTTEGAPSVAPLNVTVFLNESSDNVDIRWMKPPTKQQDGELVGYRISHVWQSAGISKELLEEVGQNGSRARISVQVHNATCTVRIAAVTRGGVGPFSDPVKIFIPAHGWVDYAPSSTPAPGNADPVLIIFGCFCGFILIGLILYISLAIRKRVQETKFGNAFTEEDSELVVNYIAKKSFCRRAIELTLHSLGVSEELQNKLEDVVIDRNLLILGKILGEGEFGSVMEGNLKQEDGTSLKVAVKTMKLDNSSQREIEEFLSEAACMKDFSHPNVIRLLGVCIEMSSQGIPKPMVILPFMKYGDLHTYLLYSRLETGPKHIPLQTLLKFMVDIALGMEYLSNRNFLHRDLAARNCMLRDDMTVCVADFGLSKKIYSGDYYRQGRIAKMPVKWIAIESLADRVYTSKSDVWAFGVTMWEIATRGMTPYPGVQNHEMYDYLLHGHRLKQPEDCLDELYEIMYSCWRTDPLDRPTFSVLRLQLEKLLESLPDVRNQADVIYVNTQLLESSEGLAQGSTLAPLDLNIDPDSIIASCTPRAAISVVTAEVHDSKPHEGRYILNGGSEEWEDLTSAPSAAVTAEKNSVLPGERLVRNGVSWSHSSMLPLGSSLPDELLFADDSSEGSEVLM
Test: phosphorylation enrichment, bacterial display (enrichment ratio); higher = better substrate or ligand; peptides without Tyr show the background
Format: numeric value only, no unit, no commentary.

*Q* Would you kindly share the measured phosphorylation enrichment for LPQDGYRIVQH [PTPRT_Y1329_R1324L] ?
*A* 0.361

*Q* // query phosphorylation enrichment value for entry ECKETYHEGEC [PRKN_Y372_A371T]
*A* 0.629

*Q* I would be grateful if you could share the reported phosphorylation enrichment for CEHRGCLFLAI [TEK_Y897_Y897C_YF] .
*A* 0.298

*Q* What value of phosphorylation enrichment has been recorded for this entry: FGCTFYNQAIM [MCCC2_Y196_R193C]
*A* 0.365

*Q* Look up phosphorylation enrichment for this sequence: KAEELYIGVTV [EFHC2_Y509]
*A* 1.42
